measurementKind: melting point (°C)

>>> df
                                   compound  valueobserved
0  Cn1cncc1C(O)(c1ccc2ncccc2c1)c1ccc2nc(Cl)nc(-c3cccc(Cl)c3)c2c1 (stereo not drawn)            250
1          N#Cc1ccc(NC(=O)c2ccc(C=O)cc2)cc1            236

====

Listing of entries alongside the reported melting point.
measurementKind: melting point

>>> print(df.to_string())
                                    compound  valueobserved
 0                     COc1ccc(-c2cccnc2)cc1    62 to 63 °C
 1  Cc1ccc(S(=O)(=O)N2CCSC2=C(c2cccc(C)c2C)C(N)c2cccc(C)c2)cc1 (stereo not drawn)  141 to 144 °C
 2  CCOC(=O)C1(O)C=CC(N=Nc2ccccc2)=CC1 (stereo not drawn)  153 to 154 °C
 3  Cc1ccc(S(=O)(=O)OCC2Cc3cc(Cl)cc(-c4cccc(Cl)c4)c3O2)cc1 (stereo not drawn)    80 to 82 °C
 4  CC(C)c1ccc(S(=O)(=O)Nc2ccccc2C(=O)NCCc2ncc[nH]2)cc1  210 to 218 °C
 5  CCNC(=O)c1cccc(-c2c(CC(=O)Nc3ccc(Cl)cc3C(F)(F)F)c(=O)oc3cc(Cl)c(C)cc23)c1  220 to 222 °C
 6   COC(=O)c1ccc(-c2nc(-c3ccc(Cl)s3)cs2)cc1  171 to 172 °C
 7  O=C(O)COCCOCCN1CCC(=C(c2ccccc2)c2ccccc2)CC1  120 to 123 °C
 8  CS(=O)(=O)c1ccc(-n2cc(C(F)(F)F)nc2-c2ccc(-c3ccco3)cc2)cc1    82 to 84 °C
 9    Cc1c(-c2cccnc2)n(CCCCCC(=O)O)c2ccccc12  111 to 113 °C
10  CCOC1CC(n2cc(C(F)(F)F)c(=O)[nH]c2=O)OC1CO (stereo not drawn)  183 to 184 °C
11                         CC(=O)Cc1ccccc1Br    60 to 65 °C
12  COc1ccc2cc([C@H](C)C(=O)OCC(=O)N(C)CCCO[N+](=O)[O-])ccc2c1  104 to 105 °C

These entries and their values trace back to a melting point compilation (Tetko et al.; mined from patent text by program, amines drawn as free bases though some values may be those of a salt).
